Measured pIC50 on JMJD2C (Homo sapiens (Human), UniProt Q9H3R0) follows.
Sequence (Q9H3R0 2-372): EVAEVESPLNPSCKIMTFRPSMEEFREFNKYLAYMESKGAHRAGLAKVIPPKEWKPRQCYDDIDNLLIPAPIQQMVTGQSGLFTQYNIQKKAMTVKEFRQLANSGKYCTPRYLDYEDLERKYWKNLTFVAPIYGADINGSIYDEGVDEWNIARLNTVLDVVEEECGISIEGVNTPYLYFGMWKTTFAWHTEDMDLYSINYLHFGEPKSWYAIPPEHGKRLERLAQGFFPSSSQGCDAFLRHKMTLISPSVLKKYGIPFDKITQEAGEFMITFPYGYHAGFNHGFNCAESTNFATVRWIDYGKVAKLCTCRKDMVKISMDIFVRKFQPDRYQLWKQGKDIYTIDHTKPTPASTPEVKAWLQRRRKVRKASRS
pIC50: −log10 of the molar value. Counter-ions that a name gives are not always drawn.

In the examples that follow, each entry is paired with its recorded pIC50.
[
  {
    "Molecule": "CN(c1ccncc1)c1ccc2c(c1)CCC[C@H]2CNc1cnccc1C(=O)O",
    "Target of assay": "JMJD2C (Homo sapiens (Human), UniProt Q9H3R0)",
    "pIC50": "≥ 7.00"
  },
  {
    "Molecule": "CN(c1ccccc1)c1ccc2c(n1)CCCC2CNc1cnccc1C(=O)O (stereo not drawn)",
    "Target of assay": "JMJD2C (Homo sapiens (Human), UniProt Q9H3R0)",
    "pIC50": "6.00 to 7.00"
  },
  {
    "Molecule": "O=C(O)c1ccncc1NC[C@H]1CCOc2cc(Oc3ccccc3)ccc21",
    "Target of assay": "JMJD2C (Homo sapiens (Human), UniProt Q9H3R0)",
    "pIC50": "5.00 to 6.00"
  },
  {
    "Molecule": "O=C(O)c1ccncc1NCC1CCOc2cc(N(CC(F)(F)F)c3ccccc3)ccc21 (stereo not drawn)",
    "Target of assay": "JMJD2C (Homo sapiens (Human), UniProt Q9H3R0)",
    "pIC50": "5.00 to 6.00"
  }
]

Identify measured pIC50 associated with Cc1ccccc1Sc1ccc2c(c1)OCC[C@H]2CNc1cnccc1C(=O)O
6.00 to 7.00

Query pIC50 for O=C(O)c1ccncc1NC[C@@H]1CCOc2cc(Oc3ccccc3)ccc21
6.00 to 7.00

Fill in pIC50 for record Cc1cc(-c2ccc3c(c2)CCCC3CNc2cnccc2C(=O)O)ccn1 (stereo not drawn) [Example 89, hydrochloride]
6.00 to 7.00

Output measured pIC50 for this item: CCCc1ccc(N(C)c2ccc3c(c2)OCC[C@H]3CNc2cnccc2C(=O)O)cc1
5.00 to 6.00

In one line, give reported pIC50 of the entry Cc1ccccc1Sc1ccc2c(c1)OCC[C@@H]2CNc1cnccc1C(=O)O .
5.00 to 6.00
